assay: Solubility of linker-payloads (LC-MS standard curve, saturated solution); assay type: physicochemical; conditions: water, thermodynamic from solid, aqueous; read-out: Aq. Solubility
Numbered stars: 1 amine (or outer) side, 2 acyl side, 3 side chain; on linkers, the order of the positions; unused ones are H or OH. Square brackets hold non-standard residues; d marks the D form. Peptide text beside a SMILES is read from it. * marks the point of attachment. Dolaproine = CO[C@@H]([C@@H]1CCCN1)[C@@H](C)C(=O)O; Dil = CC[C@H](C)[C@H](NC)[C@@H](CC(=O)O)OC; PABC = O=C(OCc1ccc(N[*:1])cc1)[*:2]; DBCO = C1#Cc2ccccc2N(*)Cc2ccccc21; X1 = C[C@@H](N*)[C@@H](O)c1ccccc1; Cit = NC(=O)NCCC[C@H](N)C(=O)O; PEG4 = NCCOCCOCCOCCOCCC(=O)O; Suc = O=C(CCC(=O)[*:2])[*:1]; NMeV = CN[C@H](C(=O)O)C(C)C
endpoint_name: solubility at 10 min

Example cases with answers are listed next.
CCC[C@@H]1O[C@@H]2C[C@H]3[C@@H]4CCC5=CC(=O)C=C[C@]5(C)[C@H]4[C@@H](O)C[C@]3(C)[C@]2(C(=O)COc2ccc(NC(=O)[C@H](C)NC(=O)[C@@H](NC(=O)CCOCCOCCOCCOCCNC(=O)CCC(=O)N3Cc4ccccc4C#Cc4ccccc43)C(C)C)cc2)O1	< 100 µg/mL
CCC[C@@H]1O[C@@H]2C[C@H]3[C@@H]4CCC5=CC(=O)C=C[C@]5(C)[C@H]4[C@@H](O)C[C@]3(C)[C@]2(C(=O)COc2ccc(NC(=O)[C@H](C)NC(=O)[C@@H](NC(=O)[C@@H](CCCCNC(=O)COC3CCCCCc4c3nnn4CC3OC4OC5C(CO)OC(OC6C(CO)OC(OC7C(CO)OC(OC8C(CO)OC(OC9C(CO)OC(OC3C(O)C4O)C(O)C9O)C(O)C8O)C(O)C7O)C(O)C6O)C(O)C5O)NC(=O)CCOCCOCCOCCOCCNC(=O)CCC(=O)N3Cc4ccccc4C#Cc4ccccc43)C(C)C)cc2)O1 (stereo partly shown)	< 100 µg/mL
CCCC1O[C@@H]2C[C@H]3[C@@H]4C[C@H](F)C5=CC(=O)C=C[C@]5(C)[C@@]4(F)[C@@H](O)C[C@]3(C)[C@]2(C(=O)CNC(=O)OCc2ccc(NC(=O)[C@H](CCCNC(N)=O)NC(=O)[C@@H](NC(=O)CCOCCOCCOCCOCCNC(=O)CCC(=O)N3Cc4ccccc4C#Cc4ccccc43)C(C)C)cc2)O1 (stereo partly shown)	< 20 µg/mL

Let us move to another entry and its solubility at 10 min.
Value of solubility at 10 min reported for the molecule CC[C@H](C)[C@@H]([C@@H](CC(=O)N1CCC[C@H]1[C@H](OC)[C@@H](C)C(=O)N[C@H](C)[C@@H](O)c1ccccc1)OC)N(C)C(=O)[C@@H](NC(=O)[C@H](C(C)C)N(C)C(=O)OCc1ccc(NC(=O)[C@H](CCCNC(N)=O)NC(=O)[C@@H](NC(=O)CCOCCOCCOCCOCCNC(=O)CCC(=O)N2Cc3ccccc3C#Cc3ccccc32)C(C)C)cc1)C(C)C [Ex36] ({DBCO-Suc-PEG4}-V[Cit][PABC][NMeV]V[Dil][Dolaproine]-X1) is < 100 µg/mL

meta.source: patent US12589101B2
